# Tested on: RAW-Dual
# experiment: NF-kB SEAP reporter activity, fold change vs agonist alone; cytotoxicity flag (confluency mask): not cytotoxic; higher = enhanced NF-kB activity
# experimental context: agonist: Pam3CSK4 (TLR2/1) 0.1 ug/mL
In all, about 2,900 compounds were measured (“NF-kB SEAP reporter activity, fold change vs agonist alone”: median about 0.99, highest 2% from about 2.6 on). What follows is part of a selection rich in the highest values, with near analogues and random picks from the rest.
reported property: NF-kB SEAP reporter activity
The answer should be a number; do not append a unit.

These solved cases illustrate the format of a correct answer.
Problem: Can you look up NF-kB SEAP reporter activity on RAW-Dual for COc1cc(N2CCC(N(C)C)CC2)ccc1Nc1ncc(Cl)c(Nc2ccccc2P(C)(C)=O)n1 (library stock concentration (final ~1000-fold dilution): 10 mM) ?
Solution: 1.46

Problem: Notebook: pull reported NF-kB SEAP reporter activity for RAW-Dual, entry COc1cc(N2CCC(N3CCN(C)CC3)CC2)ccc1Nc1ncc(Cl)c(Nc2ccccc2S(=O)(=O)C(C)C)n1 (library stock concentration (final ~1000-fold dilution): 2 mM)
Solution: 1.2

Proceed to the following item.
Problem: Give RAW-Dual NF-kB SEAP reporter activity for O=c1[nH]c(=S)[nH]c2nc(-c3ccccc3)c(-c3ccccc3)nc12 (library stock concentration (final ~1000-fold dilution): 10 mM)
Solution: 0.926
